Values from the supplement of paper PMC5579334

System: ST8814
Test: % inhibition of CellTiter-Glo viability at highest tested concentration (72 h), relative to DMSO and benzethonium chloride controls; higher = more inhibition
experimental_readout: % inhibition (%)
Answers are plain numbers, in %.

Example entries begin here.
> print(dat)
                                   compound  experimental.readout  unit.abbrev  test.result
1  CNC(=O)c1cc(Oc2ccc(NC(=O)Nc3cc(C(C)(C)C)nn3-c3ccc4ncccc4c3)c(F)c2)ccn1 [Rebastinib] (max concentration tested 1000 nM)          % inhibition            %        -2.38
2  COc1cc2ncnc(Nc3ccc(F)c(Cl)c3)c2cc1OCCCN1CCOCC1 [Gefitinib] (max concentration tested 10000 nM)          % inhibition            %         68.4
3  OC[C@H]1O[C@@H](n2cnc3c2N=CNC[C@H]3O)C[C@@H]1O [Pentostatin] (max concentration tested 10000 nM)          % inhibition            %       -0.684
4  Cc1nc(C(=O)NCC(=O)O)c(O)c2ccc(Oc3ccccc3)cc12 [FG-4592] (max concentration tested 10000 nM)          % inhibition            %         7.03
5  CCN(CC)CCCC(C)Nc1c2ccc(Cl)cc2nc2ccc(OC)cc12 (stereo unspecified) [Mepacrine aq] (max concentration tested 50000 nM)          % inhibition            %         96.3

Now take the following compound into account.
Looking for the measured % inhibition of CNC(=O)c1ccc(N2C(=S)N(c3cnc(C#N)c(C(F)(F)F)c3)C(=O)C23CCC3)cc1F [ARN 509] (max concentration tested 10000 nM) , can you help?
9.08
